biological target: EGFR protein kinase (Homo sapiens, UniProt P00533); construct: purchased Promega; assay: ADP-Glo Kinase Assay, EGFR protein kinase activity; type: biochemical; settings: by the IVIS system
Sequence (P00533 25-1210): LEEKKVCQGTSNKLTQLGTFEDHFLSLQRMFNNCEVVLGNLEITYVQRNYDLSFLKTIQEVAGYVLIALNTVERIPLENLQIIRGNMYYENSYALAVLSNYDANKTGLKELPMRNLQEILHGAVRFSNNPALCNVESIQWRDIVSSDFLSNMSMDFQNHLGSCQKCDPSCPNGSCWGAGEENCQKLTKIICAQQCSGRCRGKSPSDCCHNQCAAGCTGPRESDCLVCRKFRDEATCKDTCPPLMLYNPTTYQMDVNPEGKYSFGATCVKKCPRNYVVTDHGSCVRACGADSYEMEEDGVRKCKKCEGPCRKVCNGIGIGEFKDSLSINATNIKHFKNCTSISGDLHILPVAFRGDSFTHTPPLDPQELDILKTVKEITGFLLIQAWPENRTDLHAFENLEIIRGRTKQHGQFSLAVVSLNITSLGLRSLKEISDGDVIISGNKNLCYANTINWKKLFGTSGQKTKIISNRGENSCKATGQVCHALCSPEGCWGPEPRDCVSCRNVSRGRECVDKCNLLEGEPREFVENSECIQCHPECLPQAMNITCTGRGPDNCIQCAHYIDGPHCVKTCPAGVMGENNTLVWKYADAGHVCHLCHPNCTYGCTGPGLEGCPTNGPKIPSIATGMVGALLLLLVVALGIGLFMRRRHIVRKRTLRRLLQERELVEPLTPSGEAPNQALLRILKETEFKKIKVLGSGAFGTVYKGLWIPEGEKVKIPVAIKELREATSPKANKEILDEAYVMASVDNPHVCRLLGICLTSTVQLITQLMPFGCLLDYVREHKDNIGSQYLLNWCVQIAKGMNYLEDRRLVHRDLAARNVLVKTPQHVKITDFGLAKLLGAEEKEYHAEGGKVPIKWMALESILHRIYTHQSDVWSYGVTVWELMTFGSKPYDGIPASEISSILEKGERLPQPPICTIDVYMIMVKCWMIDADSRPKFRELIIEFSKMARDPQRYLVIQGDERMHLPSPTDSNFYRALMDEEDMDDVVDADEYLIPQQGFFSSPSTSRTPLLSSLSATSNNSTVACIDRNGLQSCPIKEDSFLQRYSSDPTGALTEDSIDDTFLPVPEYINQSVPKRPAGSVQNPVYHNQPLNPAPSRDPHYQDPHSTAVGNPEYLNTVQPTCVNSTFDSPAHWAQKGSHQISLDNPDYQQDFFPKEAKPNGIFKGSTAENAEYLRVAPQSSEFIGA
pIC50: −log10 of the molar value.
experimental_readout: pIC50

Inquiry: Bench note: what pIC50 did CCCCCCCCCCCCOC(=O)CCC(=O)N1CCN(CCCOc2cc3c(Nc4ccc(F)c(Cl)c4)ncnc3cc2OC)CC1 [Analogue-18] show?
Reply text: ~6.89

* * *

Here, each record is paired with measured viability at 24 h data.
test: MTT cell viability, HFL1 normal lung fibroblasts; format: cell-based; conditions: human, HFL1 normal lung fibroblast cells, 0 to 40 μM

COc1cc2ncnc(Nc3ccc(F)c(Cl)c3)c2cc1OCCCN1CCOCC1 [Iressa, Gefitinib, reference compound] :: > 30%

Next up:
Inquiry: GET /values?readout=viability at 24 h&item= "CCCCCCCCCCCCOC(=O)CCC(=O)N1CCN(CCCOc2cc3c(Nc4ccc(F)c(Cl)c4)ncnc3cc2OC)CC1"
Reply text: > 30%

Entry source: patent US9512086B2
